For each entry below, report its pIC50 value.
- system.tested: thrombin (Homo sapiens)
- Construct: The formation of thrombin is the result of the proteolytic cleavage of its precursor prothrombin
- assay.remarks: Thrombin amidolytic assay (Chromozym TH)
- Assay type: biochemical
- conditions: 5 min preincubation, room temperature, pH 7.5; read-out: Inhibitory Activity (IC50) Thrombin
Square brackets hold non-standard residues; d marks the D form. Peptide text beside a SMILES is read from it. * marks the point of attachment. d(hArg) = N=C(N)NCCCC[C@@H](N)C(=O)O; Hydrocinnamoyl = O=C(CCc1ccccc1)*; Boc = CC(C)(C)OC(=O)*
# log scale: pIC50 equals minus log10 of the concentration in mol/L

Data request: Endpoint output: pIC50 of N=C(N)NCCC[C@@H](C=O)NC(=O)CNC(=O)[C@@H](CCCNC(=N)N)NC(=O)CCc1ccccc1 [PhCH2 CH2 CO--D--Arg--Gly--Arg--H, 3-Phenylpropanoyl-D-Arg-Gly-Arg-H] (Hydrocinnamoyl-[dR]-Gly-Arg-aldehyde) . Value?
Data returned: 4.12

Data request: Query: pIC50; subject: CC(C)(C)OC(=O)N[C@H](CCCCNC(=N)N)C(=O)NCC(=O)N[C@H](C=O)CCCNC(=N)N [Boc--D--Har--Gly--Arg--H, Boc-D-Har-Gly-Arg-H] (Boc-[d(hArg)]-Gly-Arg-aldehyde)
Data returned: 3.39

* * *

- system.tested: UniProt P00742
- assay.remarks: Factor Xa amidolytic assay (chromogenic substrate S-2765)
- Type: biochemical
Square brackets hold non-standard residues; d marks the D form. Peptide text beside a SMILES is read from it. * marks the point of attachment. dCit = NC(=O)NCCC[C@@H](N)C(=O)O; Boc = CC(C)(C)OC(=O)*
assay.metric: IC50 (nM)
Hi! Could you send only the number? It should be in nM, unit omitted.

Data request: Data request, read-out IC50, for NC(N)=NCCC[C@@H](C=O)NC(=O)CNC(=O)[C@H](N)CCCN=C(N)N [H--D--Arg--Gly--Arg--H, D-Arg-Gly-Arg-H] (H-[dR]-Gly-Arg-aldehyde)
Data returned: 64

Data request: Need IC50, item N=C(N)NCCC[C@@H](C=O)NC(=O)CNC(=O)[C@@H](CCCNC(=N)N)NC(=O)CC(=O)O
Data returned: 98

Data request: For the compound shown here, CC(C)(C)OC(=O)N[C@H](CCCNC(N)=O)C(=O)NCC(=O)N[C@H](C=O)CCCN=C(N)N [Boc--D--Cit--Gly--Arg--H, Boc-D-Cit-Gly-Arg-H] (Boc-[dCit]-Gly-Arg-aldehyde) , give the reported IC50.
Data returned: 5000

Data request: # lookup: IC50 of CCOC(=O)N[C@H](CCCN=C(N)N)C(=O)NCC(=O)N[C@H](C=O)CCCN=C(N)N
Data returned: 49

* * *

- system.tested: factor Xa (Homo sapiens)
- Sequence (P00742 235-488 limits assumed): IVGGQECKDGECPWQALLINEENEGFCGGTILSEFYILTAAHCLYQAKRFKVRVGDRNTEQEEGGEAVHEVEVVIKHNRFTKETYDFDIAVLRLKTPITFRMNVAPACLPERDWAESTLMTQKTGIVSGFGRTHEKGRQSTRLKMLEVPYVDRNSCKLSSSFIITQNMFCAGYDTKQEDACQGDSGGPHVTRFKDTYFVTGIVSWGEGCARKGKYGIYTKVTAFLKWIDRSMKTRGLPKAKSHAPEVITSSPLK
- Sequence (P00742 41-179 limits assumed): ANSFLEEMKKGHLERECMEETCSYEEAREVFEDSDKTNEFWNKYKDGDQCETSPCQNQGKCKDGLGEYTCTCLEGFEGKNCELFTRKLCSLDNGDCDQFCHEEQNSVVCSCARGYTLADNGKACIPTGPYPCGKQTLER
- assay.remarks: Factor Xa amidolytic assay (chromogenic substrate S-2765)
- Assay type: biochemical
- conditions: 5 min preincubation, room temperature, pH 7.5; read-out: Inhibitory Activity (IC50) Factor Xa
Numbered stars: 1 amine (or outer) side, 2 acyl side, 3 side chain; on linkers, the order of the positions; unused ones are H or OH. Square brackets hold non-standard residues; d marks the D form. Peptide text beside a SMILES is read from it. * marks the point of attachment. d(hArg) = N=C(N)NCCCC[C@@H](N)C(=O)O; Hydrocinnamoyl = O=C(CCc1ccccc1)*; Suc = O=C(CCC(=O)[*:2])[*:1]; Boc = CC(C)(C)OC(=O)*; Aib = CC(C)(N)C(=O)O
Could you please report measured pIC50 for the items listed next?
# pIC50: negative log10 of molar concentration; output just the value

Data request: Quick one: pIC50 for CC(C)(C)OC(=O)N[C@H](CCCCNC(=N)N)C(=O)NCC(=O)N[C@H](C=O)CCCNC(=N)N [Boc--D--Har--Gly--Arg--H, Boc-D-Har-Gly-Arg-H] (Boc-[d(hArg)]-Gly-Arg-aldehyde) ?
Data returned: 7.00

Data request: // pIC50 lookup, key: C[C@@H](NC(=O)[C@@H](CCCNC(=N)N)NC(=O)OC(C)(C)C)C(=O)N[C@H](C=O)CCCNC(=N)N [Boc--D--Arg--D--Ala--Arg--H, Boc-D-Arg-D-Ala-Arg-H] (Boc-[dR]-[dA]-Arg-aldehyde)
Data returned: 6.64

Data request: Endpoint output: pIC50 of CC(C)(C)OC(=O)N[C@H](CCCNC(=N)N)C(=O)NC(C)(C)C(=O)N[C@H](C=O)CCCNC(=N)N [Boc--D--Arg--Aib--Arg--H, Boc-D-Arg-Aib-Arg-H] (Boc-[dR]-[Aib]-Arg-aldehyde) . Value?
Data returned: 6.26

Data request: Which pIC50 is reported for this molecule? C[C@H](NC(=O)[C@@H](CCCNC(=N)N)NC(=O)OC(C)(C)C)C(=O)N[C@H](C=O)CCCNC(=N)N [Boc--D--Arg--Ala--Arg--H, Boc-D-Arg-Ala-Arg-H] (Boc-[dR]-Ala-Arg-aldehyde)
Data returned: 6.78

Data request: Which value of pIC50 has been reported for CC(C)(C)OC(=O)N[C@H](CCCNC(=N)N)C(=O)NCC(=O)N[C@H](C=O)CCCNC(=N)N [Boc--D--Arg--Gly--Arg--H, Boc-D-Arg-Gly-Arg-H] (Boc-[dR]-Gly-Arg-aldehyde) in the records?
Data returned: 7.30

Data request: Consider the molecule CC(C)(C)OC(=O)N[C@H](CCCCN)C(=O)NCC(=O)N[C@H](C=O)CCCNC(=N)N [Boc--D--Lys--Gly--Arg--H, Boc-D-Lys-Gly-Arg-H] (Boc-[dK]-Gly-Arg-aldehyde) and give its measured pIC50.
Data returned: 5.00

Data request: What measured pIC50 goes with N=C(N)NCCC[C@@H](C=O)NC(=O)CNC(=O)[C@@H](CCCNC(=N)N)NC(=O)CCC(=O)O [HOOC(CH2)2 CO--D--Arg--Gly--Arg--H, Succinoyl-D-Arg-Gly-Arg-H] (Suc-[dR]-Gly-Arg-aldehyde) ?
Data returned: 6.65

Data request: Quick one: pIC50 of N=C(N)NCCC[C@@H](C=O)NC(=O)CNC(=O)[C@@H](CCCNC(=N)N)NC(=O)CCc1ccccc1 [PhCH2 CH2 CO--D--Arg--Gly--Arg--H, 3-Phenylpropanoyl-D-Arg-Gly-Arg-H] (Hydrocinnamoyl-[dR]-Gly-Arg-aldehyde) ?
Data returned: 6.70

* * *

Give measured IC50 for each item. Keep answers brief.
- system.tested: thrombin (Homo sapiens, UniProt P00734)
- Construct: The formation of thrombin is the result of the proteolytic cleavage of its precursor prothrombin
- assay.remarks: Thrombin amidolytic assay (Chromozym TH)
- Assay type: biochemical
Square brackets hold non-standard residues; d marks the D form. Peptide text beside a SMILES is read from it.

Data request: Query: IC50; subject: N=C(N)NCCC[C@@H](C=O)NC(=O)CNC(=O)[C@@H](CCCNC(=N)N)NS(=O)(=O)Cc1ccccc1 [PhCH2 SO2 --D--Arg--Gly--Arg--H, Benzylsulfonyl-D-Arg-Gly-Arg-H]
Data returned: 33 µM

Data request: Suppose we examine the compound NC(N)=NCCC[C@@H](C=O)NC(=O)CNC(=O)[C@H](N)CCCN=C(N)N [H--D--Arg--Gly--Arg--H, D-Arg-Gly-Arg-H] (H-[dR]-Gly-Arg-aldehyde) ; what IC50 value has been reported?
Data returned: 41 µM

Data request: Recorded IC50 of N=C(N)NCCC[C@@H](C=O)NC(=O)CNC(=O)[C@@H](CCCNC(=N)N)NC(=O)COc1ccc2ccccc2c1 [2-NaphthoxyAc--D--Arg--Gly--Arg--H, 2-Napthoxyacetyl-D-Arg-Gly-Arg-H] , please.
Data returned: > 100 µM

* * *

- system.tested: prothrombinase complex (Homo sapiens)
- Sequence (P00742 235-488 limits assumed): as the sequence (P00742 235-488 limits assumed) above
- Sequence (P00742 41-179 limits assumed): as the sequence (P00742 41-179 limits assumed) above
- assay.remarks: Prothrombinase inhibition assay, plasma free system
- conditions: 5 min preincubation, factor Xa 0.5 nM, factor Va 2 nM, pH 7.5; read-out: Inhibitory Activity (IC50) Prothrombinase
pIC50: −log10 of the molar value. Square brackets hold non-standard residues; d marks the D form. Peptide text beside a SMILES is read from it. * marks the point of attachment. d(hArg) = N=C(N)NCCCC[C@@H](N)C(=O)O; Hydrocinnamoyl = O=C(CCc1ccccc1)*; dCit = NC(=O)NCCC[C@@H](N)C(=O)O; Boc = CC(C)(C)OC(=O)*
Label true when pIC50 is at or above 6; anything below gets false.

Data request: Textbook exercise: given the entry CC(C)(C)OC(=O)N[C@H](CCCNC(N)=O)C(=O)NCC(=O)N[C@H](C=O)CCCN=C(N)N [Boc--D--Cit--Gly--Arg--H, Boc-D-Cit-Gly-Arg-H] (Boc-[dCit]-Gly-Arg-aldehyde) , state whether its pIC50 is greater than or equal to 6.
Data returned: false

Data request: Item N=C(N)NCCC[C@@H](C=O)NC(=O)CNC(=O)[C@@H](CCCNC(=N)N)NC(=O)C(=O)O with pIC50 of 6 or above?
Data returned: true

Data request: Say whether N=C(N)NCCC[C@@H](C=O)NC(=O)CNC(=O)[C@@H](CCCNC(=N)N)NC(=O)CCc1ccccc1 [PhCH2 CH2 CO--D--Arg--Gly--Arg--H, 3-Phenylpropanoyl-D-Arg-Gly-Arg-H] (Hydrocinnamoyl-[dR]-Gly-Arg-aldehyde) shows pIC50 of 6 or more.
Data returned: false

Data request: Is pIC50 at least 6? Consider CC(C)(C)OC(=O)N[C@H](CCCCNC(=N)N)C(=O)NCC(=O)N[C@H](C=O)CCCNC(=N)N [Boc--D--Har--Gly--Arg--H, Boc-D-Har-Gly-Arg-H] (Boc-[d(hArg)]-Gly-Arg-aldehyde)
Data returned: true

Ref: patent US5721214A
